# System: intestinal flora
# assay.explanation: Effects of administration routes on the diversity of intestinal flora in mice (16S rDNA sequencing, OTU)
# Format: in vivo
# stated.conditions: C57BL/6 mice, feces; in combination with recombinant human HAase for subcutaneous administration, five consecutive days; D5
measured.quantity: Relative abundance of OUT (operational taxonomic units)

Here's what some known entries look like.
C[C@@H](O)[C@H]1C(=O)N2C(C(=O)O)=C(S[C@@H]3CN[C@H](C(=O)Nc4cccc(C(=O)O)c4)C3)[C@H](C)[C@H]12: 28.2%
CO/N=C(\C(=O)N[C@@H]1C(=O)N2C(C(=O)O)=C(CSc3nc(=O)c(=O)[nH]n3C)CS[C@H]12)c1csc(N)n1: 29.1%
CC1=C(C(=O)O)N2C(=O)[C@@H](NC(=O)[C@H](N)C3=CCC=CC3)[C@H]2SC1: 36.2%

Consider CC(C)(O/N=C(\C(=O)N[C@@H]1C(=O)N2C(C(=O)[O-])=C(C[n+]3ccccc3)CS[C@H]12)c1csc(N)n1)C(=O)O . Its measured Relative abundance of OUT (operational taxonomic units) is 34.3%

These measurements were taken from patent US20250099557A1.
